Data provenance: PubChem BioAssay (NCI)

- Tested on: RPMI-8226 leukemia
- PROCEDURE_TEXT: NCI tumour cell line growth inhibition, 48 h
MEASUREMENT_KIND: TGI

>  <COMPOUND>
Cc1nc2[nH]ncn2c(=O)c1CCCl

>  <TGI>
> 10 µM

$$$$

Exercise: Requested field: TGI. Item: Cn1c2ccccc2c(=O)c2cccc(C(=O)NCC(=O)O)c21
Solution: > 100 µM

Exercise: Requested field: TGI. Item: COc1cc2c(cc1OC)C(=O)C1(C2)[C@H](c2ccccc2)C2C(=O)c3cc(OC)c(OC)cc3C2[C@H]1c1ccccc1 (stereo partly specified)
Solution: > 100 µM

* * *

- System: COLO 205 colon
- PROCEDURE_TEXT: NCI tumour cell line growth inhibition, 48 h
MEASUREMENT_KIND: TGI

// known answers, use as guide
>  <COMPOUND>
Cc1ccc(C(=O)/C(=C\c2ccc([N+](=O)[O-])cc2)S(=O)Cc2ccc(Cl)cc2)cc1 (configuration not stated)

>  <TESTED_ON>
COLO 205 colon

>  <TGI>
3.81 µM

$$$$
>  <COMPOUND>
O=[N+]([O-])c1cc(C(F)(F)F)ccc1Sc1ccc(C(F)(F)F)cc1[N+](=O)[O-]

>  <TESTED_ON>
COLO 205 colon

>  <TGI>
> 100 µM

$$$$
>  <COMPOUND>
COC1(OC)C=CC2C1C1C=CC2C1(OC)OC (configuration not stated)

>  <TESTED_ON>
COLO 205 colon

>  <TGI>
> 100 µM

$$$$
>  <COMPOUND>
CC(C)Oc1cccc(N2C(=NCCc3c[nH]c4ccccc34)Nc3ccncc3S2(=O)=O)c1

>  <TESTED_ON>
COLO 205 colon

>  <TGI>
4.08 µM

$$$$
>  <COMPOUND>
COc1ccc(/C(=C/n2ccnc2)C(O)c2ccc(OC)c(OC)c2)cc1OC (configuration not stated)

>  <TESTED_ON>
COLO 205 colon

>  <TGI>
> 100 µM

$$$$

Exercise: Item CSC(=S)OC1CC(n2cnc3c(NC(=O)c4ccccc4)ncnc32)OC1CO[Si](C)(C)C(C)(C)C (configuration not stated) with COLO 205 colon - TGI?
Solution: 18.1 µM

Exercise: Item Clc1ccc(C[P+]2(c3ccccc3)CCCCC2)cc1 with COLO 205 colon - TGI?
Solution: > 100 µM

* * *

- Tested on: MDA-MB-435
- PROCEDURE_TEXT: NCI tumour cell line growth inhibition, 48 h
MEASUREMENT_KIND: TGI (µM)
Form entry: value (µM) — number only.

// known answers, use as guide
>  <COMPOUND>
O=C1/C(=C/c2ccc(Oc3ccccc3)cc2)N=C(c2ccccc2)N1c1ccc(S(=O)(=O)Nc2nccs2)cc1

>  <OUTPUT_UNIT>
µM

>  <TGI>
6.86

$$$$
>  <COMPOUND>
Oc1c(Cl)cc(Cl)cc1C(c1cc(Cl)cc(Cl)c1O)C(Cl)(Cl)Cl

>  <OUTPUT_UNIT>
µM

>  <TGI>
5.12

$$$$

Exercise: Item CCCN(CCC)c1ccc(/C=N/NC(=O)c2cccnc2)c(OC)c1 with MDA-MB-435 - TGI?
Solution: 43

Exercise: Item CCOc1ccccc1-c1nc2c(s1)C(=O)c1ccccc1C2=O with MDA-MB-435 - TGI?
Solution: 4.31

Exercise: Item C=C(CO)[C@@H]1CC[C@]2(COC3CCCCO3)CC[C@]3(C)[C@H](CC[C@@H]4[C@@]5(C)C=C(C=O)C(=O)C(C)(C)[C@@H]5CC[C@]43C)[C@@H]12 (stereo not given in full) with MDA-MB-435 - TGI?
Solution: 0.494

Exercise: Item C/C(=N\NC(=S)SCc1ccccc1)c1ccccn1 with MDA-MB-435 - TGI?
Solution: 18.3

Exercise: Item CCOC(=O)C#Cc1c(C(=O)OCC)nnn1Cc1ccc([N+](=O)[O-])cc1 with MDA-MB-435 - TGI?
Solution: 12.4
